Target: IFN-αC (human, UniProt P01566 24-189)
Experiment: cell-based or functional assay
Lab note - cut at 0.2 nM for IC50, ISRE assay: Yes if strictly below, No if not.

{"BINDER": "IFWM3320 (antibody, IgG1, V domains shown) VH: EVQLVQSGAEVKKPGESLKISCKGSGYSFTSYWIGWVRQMPGKGLEWMGIIDPSDSDTRYSPSFQGQVTISADKSISTAYLQWSSLKASDTAMYYCARHPGLNWAPDFDYWGQGTLVTVSS VL: DIQMTQSPSSLSASVGDRVTITCRASQSINGVLNWYQQKPGKAPKLLIYFASSLQSGVPSRFSGSGSGTDFTLTISSLQPEDFATYYCQQSHDFPLTFGQGTKVEIK", "CATEGORY": "No"}
{"BINDER": "IFWM3304 (antibody, IgG1, V domains shown) VH: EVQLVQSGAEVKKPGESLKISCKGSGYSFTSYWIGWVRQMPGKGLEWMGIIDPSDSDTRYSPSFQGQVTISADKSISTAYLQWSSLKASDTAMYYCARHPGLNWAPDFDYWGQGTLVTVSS VL: DIQMTQSPSSLSASVGDRVTITCRASQSIGSALNWYQQKPGKAPKLLIYFASSLQSGVPSRFSGSGSGTDFTLTISSLQPEDFATYYCQQSYDFPLTFGQGTKVEIK", "CATEGORY": "Yes"}
{"BINDER": "IFWM3399 (antibody, IgG1, V domains shown, mAb; IgG1/kappa said of the parent and of selected mAbs; also called IFWB3134) VH: EVQLVQSGAEVKKPGESLKISCKGSGYSFTSYWIGWVRQMPGKGLEWMGIIDPSDSDTRYSPSFQGQVTISADKSISTAYLQWSSLKASDTAMYYCARHPGLAWAPDFDYWGQGTLVTVSS VL: DIQMTQSPSSLSASVGDRVTITCRASQSIDGALNWYQQKPGKAPKLLIYFASSLQSGVPSRFSGSGSGTDFTLTISSLQPEDFATYYCQQAYDFPLTFGQGTKVEIK", "CATEGORY": "Yes"}
{"BINDER": "IFWM3331 (antibody, IgG1, V domains shown) VH: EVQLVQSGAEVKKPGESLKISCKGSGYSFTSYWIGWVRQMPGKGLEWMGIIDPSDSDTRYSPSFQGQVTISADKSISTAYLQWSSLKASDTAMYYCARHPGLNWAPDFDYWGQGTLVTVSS VL: DIQMTQSPSSLSASVGDRVTITCRASQSIDNSYLNWYQQKPGKAPKLLIYGASSLQSGVPSRFSGSGSGTDFTLTISSLQPEDFATYYCQQGWDWPLTFGQGTKVEIK", "CATEGORY": "Yes"}
{"BINDER": "IFWM3322 (antibody, IgG1, V domains shown) VH: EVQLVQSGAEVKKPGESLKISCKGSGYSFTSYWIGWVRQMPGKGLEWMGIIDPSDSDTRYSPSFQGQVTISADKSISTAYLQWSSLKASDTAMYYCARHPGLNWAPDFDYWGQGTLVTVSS VL: DIQMTQSPSSLSASVGDRVTITCRASQSIADFLNWYQQKPGKAPKLLIYFASSLQSGVPSRFSGSGSGTDFTLTISSLQPEDFATYYCQQSHSFPLTFGQGTKVEIK", "CATEGORY": "No"}
{"BINDER": "IFWM3314 (antibody, IgG1, V domains shown) VH: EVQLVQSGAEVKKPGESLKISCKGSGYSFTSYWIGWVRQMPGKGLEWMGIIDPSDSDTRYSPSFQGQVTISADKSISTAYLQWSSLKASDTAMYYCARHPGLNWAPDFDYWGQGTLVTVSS VL: DIQMTQSPSSLSASVGDRVTITCRASQSIDRALNWYQQKPGKAPKLLIYFASSLQSGVPSRFSGSGSGTDFTLTISSLQPEDFATYYCQQSFDFPLTFGQGTKVEIK", "CATEGORY": "Yes"}
{"BINDER": "IFWM3405 (antibody, IgG1, V domains shown, mAb; IgG1/kappa said of the parent and of selected mAbs; also called IFWB3140) VH: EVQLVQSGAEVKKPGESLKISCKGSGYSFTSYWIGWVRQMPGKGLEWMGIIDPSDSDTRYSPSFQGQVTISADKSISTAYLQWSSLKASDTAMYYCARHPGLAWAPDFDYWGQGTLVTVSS VL: DIQMTQSPSSLSASVGDRVTITCRASQSIANNNLNWYQQKPGKAPKLLIHWASSLQSGVPSRFSGSGSGTDFTLTISSLQPEDFATYYCQQGYDTPFTFGQGTKVEIK", "CATEGORY": "Yes"}
{"BINDER": "IFWM3385 (antibody, IgG1, V domains shown, mAb; IgG1/kappa said of the parent and of selected mAbs; also called IFWB3120) VH: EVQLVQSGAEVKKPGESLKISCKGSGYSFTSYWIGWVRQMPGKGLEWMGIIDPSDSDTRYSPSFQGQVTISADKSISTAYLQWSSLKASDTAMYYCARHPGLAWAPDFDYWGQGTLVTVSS VL: DIQMTQSPSSLSASVGDRVTITCRASQSIGDFLNWYQQKPGKAPKLLIYFASSLQSGVPSRFSGSGSGTDFTLTISSLQPEDFATYYCQQALDFPLTFGQGTKVEIK", "CATEGORY": "No"}
{"BINDER": "IFWM3321 (antibody, IgG1, V domains shown) VH: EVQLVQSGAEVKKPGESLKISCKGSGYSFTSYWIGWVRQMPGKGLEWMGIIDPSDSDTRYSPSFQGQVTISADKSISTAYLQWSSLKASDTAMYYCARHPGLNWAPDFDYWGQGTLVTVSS VL: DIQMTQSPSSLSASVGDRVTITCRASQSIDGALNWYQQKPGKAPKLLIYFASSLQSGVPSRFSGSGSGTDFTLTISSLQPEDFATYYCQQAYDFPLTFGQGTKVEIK", "CATEGORY": "No"}
{"BINDER": "IFWM3400 (antibody, IgG1, V domains shown, mAb; IgG1/kappa said of the parent and of selected mAbs; also called IFWB3135) VH: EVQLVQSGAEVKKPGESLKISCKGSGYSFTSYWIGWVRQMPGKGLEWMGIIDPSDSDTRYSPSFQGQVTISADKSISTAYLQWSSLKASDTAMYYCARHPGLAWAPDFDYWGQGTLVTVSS VL: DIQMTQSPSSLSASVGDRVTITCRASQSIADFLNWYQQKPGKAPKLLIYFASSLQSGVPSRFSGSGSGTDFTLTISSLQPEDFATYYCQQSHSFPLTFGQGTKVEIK", "CATEGORY": "Yes"}
